Reference source: patent US20110217237A1

The entries below are paired with their reported koff.
# targetOfAssay: T1, cynomolgus monkey DLL4 extracellular domain (cynomolgus monkey)
# T1 construct: extracellular domain; also called cynoDLL4 ECD; Cyno DLL4
# protocolNotes: SPR (Biacore)

binder	koff, s⁻¹
h1A11.A6 (antibody, V domains shown, also called h1A11.A6 VH / h1A11VL.1) VH: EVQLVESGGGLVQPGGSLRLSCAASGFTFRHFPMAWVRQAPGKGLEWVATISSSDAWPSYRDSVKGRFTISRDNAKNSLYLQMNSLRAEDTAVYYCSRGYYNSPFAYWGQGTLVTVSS VL: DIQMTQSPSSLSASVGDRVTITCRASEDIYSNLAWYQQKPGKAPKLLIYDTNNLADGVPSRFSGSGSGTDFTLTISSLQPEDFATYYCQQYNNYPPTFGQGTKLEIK	2.1e-05
h1A11.A12 (antibody, V domains shown, also called h1A11VH.1 / h1A11.A12 VL) VH: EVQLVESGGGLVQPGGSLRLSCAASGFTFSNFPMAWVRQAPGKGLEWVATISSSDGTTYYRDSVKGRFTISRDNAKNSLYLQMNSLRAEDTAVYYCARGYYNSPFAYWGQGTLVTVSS VL: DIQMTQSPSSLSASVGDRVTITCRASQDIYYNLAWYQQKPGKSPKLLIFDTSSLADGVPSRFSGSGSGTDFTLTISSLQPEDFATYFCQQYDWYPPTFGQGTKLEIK	0.00162
h1A11.E12 (antibody, V domains shown, also called h1A11.E12 VH / h1A11.E12 VL) VH: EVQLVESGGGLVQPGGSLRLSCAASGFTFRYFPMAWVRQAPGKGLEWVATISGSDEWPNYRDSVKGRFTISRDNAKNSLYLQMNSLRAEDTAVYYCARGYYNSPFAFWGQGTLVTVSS VL: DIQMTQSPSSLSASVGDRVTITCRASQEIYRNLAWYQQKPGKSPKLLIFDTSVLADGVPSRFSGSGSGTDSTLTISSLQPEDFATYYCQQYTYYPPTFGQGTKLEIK	3.84e-05
